- Tested on: primary human hepatic stellate cells (donor 1)
- run_description: COL1A1 mRNA fold change vs DMSO (normalised to PSMB2); higher = more COL1A1 expression, active = hit call of the paper
- run_parameters: 48 h
Where a name gives a salt, the structure may show the parent alone.
# label = 1.0 if COL1A1 mRNA fold change >= 0.5 else 0.0

[
  {
    "compound": "CCCCCCCCCCCCC/C=C/[C@@H](O)[C@H](CO)N(C)C [N,N-Dimethylsphingosine] (3.33333 µM)",
    "class_name": 1.0
  },
  {
    "compound": "C[C@H]1O[C@@H](O[C@H]2[C@@H](O)C[C@H](O[C@H]3[C@@H](O)C[C@H](O[C@H]4CC[C@@]5(C)[C@H](CC[C@@H]6[C@@H]5C[C@@H](O)[C@]5(C)[C@@H](C7=CC(=O)OC7)CC[C@]65O)C4)O[C@@H]3C)O[C@@H]2C)C[C@H](O)[C@@H]1O [Digoxin] (33.3333 µM)",
    "class_name": 0.0
  },
  {
    "compound": "CN1CCC(=C2c3ccccc3C=Cc3ccccc32)CC1 [Cyproheptadine] (33.3333 µM)",
    "class_name": 0.0
  },
  {
    "compound": "CCN1CCC(n2cc(CNc3cc(Cl)c4ncc(C#N)c(Nc5ccc(F)c(Cl)c5)c4c3)nn2)CC1 (33.3333 µM)",
    "class_name": 0.0
  },
  {
    "compound": "CN(C)C/C=C(/c1ccc(Br)cc1)c1cccnc1 [Zimelidine dihydrochloride] (11.1 µM)",
    "class_name": 1.0
  }
]
